- System: Es-2
- test_summary: Confirmatory qHTS for gynecologic anti-cancer compounds from libraries of approved drugs and bioactive compounds; note: nearly all actives have a fitted effect of over 55% in size
- experimental_context: gynecologic cancer cell panel viability, ATPlite luminescence, 48 h; series mostly up to 57.6 µM
- Text: National Center for Advancing Translational Sciences [NCATS] Assay Overview: Chemotherapeutic drug responses vary from cancer to cancer and from patient to patient. […] ATPlite is a luminescence based assay reliant on the conversion of a luciferase substrate to light in the presence of ATP. As a cytotoxic compound will suppress growth and decrease the number of cells, the concentration of ATP will decrease, and less light signal will be detected in the well. […]
Records with an inconclusive call do not appear. Active and inactive are the calls of the source. Calls come from the whole dose curve; as a rule, active = well fitted cell-killing curve with a large enough effect; inconclusive = small, poorly fitted or top-dose-only effect, or effect the other way; inactive = no such curve, though single readings can be large or run the other way.
Mark one answer only. Choices: active, inactive

compound	qualitative_label
CCCCc1nc2cc(/C=C/C(=O)NO)ccc2n1CCN(CC)CC	active

Exercise: Which result was noted for this compound in the test: CCOc1cc2ncc(C#N)c(Nc3ccc(F)c(Cl)c3)c2cc1NC(=O)/C=C/CN(C)C
Key: active

Exercise: Which result was noted for this compound in the test: Cc1cnc(Nc2ccc(F)cc2Cl)nc1-c1c[nH]c(C(=O)NC(CO)c2cccc(Cl)c2)c1 (stereo unspecified)
Key: inactive

Exercise: Which result was noted for this compound in the test: O=C(CCCCCCNC(=O)c1cnc(N(c2ccccc2)c2ccccc2)nc1)NO
Key: active

Exercise: Which result was noted for this compound in the test: CCOC(=O)C1=C(C)NC2=C(C(=O)CC(C)(C)C2)C1c1ccc(-c2ccccc2)cc1 (stereo unspecified)
Key: inactive

Exercise: Which result was noted for this compound in the test: O=C1c2c(O)ccc(O)c2C(=O)c2c(NCCNCCO)ccc(NCCNCCO)c21
Key: active

Exercise: Which result was noted for this compound in the test: Cc1cnc(Nc2ccc(CN3CCOCC3)cc2)nc1Nc1cccc(S(=O)(=O)NC(C)(C)C)c1
Key: active

Exercise: Which result was noted for this compound in the test: FC(F)(F)c1ccc(/C=C/c2nc(COc3ccc(CCCCn4ccnn4)cc3)co2)cc1
Key: active

Exercise: Which result was noted for this compound in the test: OCCNC1CCCc2c1[nH]c1ccc(-c3ccccc3)cc21 (stereo unspecified)
Key: active
